Target: Glucagon receptor (Homo sapiens, UniProt P47871)
Sequence (P47871 whole entry): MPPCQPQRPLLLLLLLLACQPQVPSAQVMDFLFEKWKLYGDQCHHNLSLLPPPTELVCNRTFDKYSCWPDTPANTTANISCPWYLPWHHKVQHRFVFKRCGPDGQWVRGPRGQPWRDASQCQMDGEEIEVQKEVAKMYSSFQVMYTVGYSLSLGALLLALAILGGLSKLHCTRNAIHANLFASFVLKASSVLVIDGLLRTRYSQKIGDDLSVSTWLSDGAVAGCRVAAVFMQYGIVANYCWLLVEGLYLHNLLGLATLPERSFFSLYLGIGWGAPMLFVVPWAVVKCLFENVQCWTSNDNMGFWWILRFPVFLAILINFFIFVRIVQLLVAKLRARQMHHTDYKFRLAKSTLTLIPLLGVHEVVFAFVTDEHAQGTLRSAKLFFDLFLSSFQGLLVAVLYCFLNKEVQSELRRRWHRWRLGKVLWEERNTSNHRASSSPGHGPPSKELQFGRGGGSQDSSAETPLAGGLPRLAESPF
Assay: Binding affinity towards human glucagon receptor in absence of Mg2+ expressed as IC50
reported.property: IC50 (nM)

chem.smiles	IC50 (nM)
Fc1ccc(-c2[nH]c(-c3ccc(Br)s3)nc2-c2ccncc2)cc1	2200

I: CCCCOc1ccccc1-c1[nH]c(-c2ccc(Cl)cc2)nc1-c1ccncc1
II: Fc1ccc(-c2[nH]c(-c3ccc(Cl)cc3)nc2-c2ccncc2)cc1
III: Fc1ccc(-c2[nH]c(-c3cc(Br)cs3)nc2-c2ccncc2)cc1
Rank descending by IC50. Submit the labels in the order that the ranking request calls for.
III, II, I
(III: 2800 nM, II: 400 nM, I: 8.5 nM)
